Reference for the values: patent US20240084003A1

- Test system: T1, monkey CD22 protein (ACROBiosystems, catalog number SI2-R52Ha) (monkey, UniProt F6W485 20-688)
- T1 construct: commercial protein; also called monkey CD22-ECD; monkey CD22-ECD-His
- T1 sequence: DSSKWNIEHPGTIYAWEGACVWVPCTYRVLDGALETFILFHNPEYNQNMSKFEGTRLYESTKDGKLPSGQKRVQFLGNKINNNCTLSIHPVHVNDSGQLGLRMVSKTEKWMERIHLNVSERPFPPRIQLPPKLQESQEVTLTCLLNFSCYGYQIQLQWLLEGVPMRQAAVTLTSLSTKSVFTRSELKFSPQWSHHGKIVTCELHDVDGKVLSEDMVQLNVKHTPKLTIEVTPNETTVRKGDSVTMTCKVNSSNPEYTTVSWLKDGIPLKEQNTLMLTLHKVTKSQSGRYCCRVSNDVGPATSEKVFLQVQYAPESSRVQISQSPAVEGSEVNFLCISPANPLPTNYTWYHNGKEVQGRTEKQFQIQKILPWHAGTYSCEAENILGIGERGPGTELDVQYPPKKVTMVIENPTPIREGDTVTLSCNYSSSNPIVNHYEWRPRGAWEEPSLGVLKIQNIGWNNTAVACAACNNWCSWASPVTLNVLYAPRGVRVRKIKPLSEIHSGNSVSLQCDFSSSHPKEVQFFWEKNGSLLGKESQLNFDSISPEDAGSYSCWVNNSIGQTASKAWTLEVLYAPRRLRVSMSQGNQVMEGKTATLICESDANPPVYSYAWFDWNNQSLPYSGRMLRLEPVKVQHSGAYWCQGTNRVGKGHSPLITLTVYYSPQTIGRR
- Experiment description: ELISA, coated monkey CD22 protein, antibody 100 nM
- Protocol: In order to detect the binding activity of CD22 human-murine chimeric antibodies to CD22 protein, the purified human CD22-ECD-His protein obtained in Example 2 was diluted with PBS to a final concentration of 2 μg/mL, and then added to 96-well ELISA plate at 100 μl/well. The plate was sealed with plastic film and incubated overnight at 4° C., the plate was washed 2 times with PBS the next day, and then a blocking solution [PBS+2% (w/w) BSA] was added for blocking at room temperature for 2 hours. […]
Measure: log10 of OD450 (log10 of the value in OD450)
Recorded OD450 (log10, OD450)

Solved entries (count: 2):
{"Binder": "F1.280.1 (antibody, human IgG1, kappa, V domains shown, human-murine chimeric IgG1 kappa) VH: QIQLVQSGPELKKPGETVKISCKASGYTFTTYGMSWVKQTPGKGLTWMGWINTDSGVPTYADDFKRRFAFSLEASATTAYLQINNLKNEDTATYFCARGGPDYWGQGTTLTVSS VL: DILLTQSPATLSVTPGETVSLSCRASQSIYKNLHWYHQKSHRSPRLLIKYASDSISGIPSRFTGSGSGTNFTLSINSVKPEDEGIYYCLQGYIVPLTFGAGTKLELKR", "Observed value": -0.70}
{"Binder": "F2.70.2 (antibody, human IgG1, lambda, V domains shown, human-murine chimeric IgG1 lambda) VH: EVQLVESGGGLVKPGGSLKLSCAASGFTFSDYGMNWFRQAPEKGLEWVAYISRGSHTIYYADTVKGRFTISRDNAKNTLFLQMTSLRSNDTAMYYCVRMAGYYAMDYWGQGTSVTVSS VL: QLVLTQSSSASFSLGASAKLTCTLSSQHSSYIIEWYQQQPLKPPKYVMELKKDGSHSTGDGIPDRFSGSSSGADRYLSISNIQPEDEAIYICGVGDTIKEQFVYVFGGGTKVTVLG", "Observed value": -0.96}

Measured log10 of OD450, F2.151.13 (antibody, human IgG1, lambda, V domains shown, human-murine chimeric IgG1 lambda) VH: QVHLQQPGTELMKPGASVKLSCKATGYTFRDYWLEWVKQRPGHGLEWIGEILPGSGNAYYNEKFKGKATFTADTSSNTAYMQLSSLTTEDSAIYYCARVYSNWYFDAWGKGTTVTVSS VL: QAVVTQESALTTSPGETVTLTCRSSTGAVTTSNYANWVQEKPDHLFTGLIGGTNNQAPGVPARFSGSLIGDKAALTISGAQTEDEAIYFCALWFSNHWVFGGGTKLTVLG : 0.44

Measured log10 of OD450, F1.231.15 (antibody, IgG1, V domains shown, human-murine chimeric IgG1 kappa) VH: QVQLQQPGAELVKPGASVKLSCKTSGYTFTIYWMQWVKQRPGRGLEWIGRIDPHSGDTHYNENFTTKVTLTVDETSNTAYMHLSGLTSEDSAVYYCARRDYSYYVLDYWGQGTSVTVSS VL: DVVLTQTPLSLPVSLGDQASISCRSSQSLVHINGDTYLHWYLQKPGQSPKLLIYTVFNRFSGVPDRFSGSGSGTDFTLKISRVEAEDLGAYFCSQSTHVPYTFGGGTKLEIKR : -0.35

Measured log10 of OD450, F2.99.1 (antibody, human IgG1, lambda, V domains shown, human-murine chimeric IgG1 lambda; VL name legible) VH: QVTLKESGPGILQPSQTLSLTCSFSGFSLSTFPMGVGWIRQPSGKGLEWLAHIWWDDDEYYNPVLKSRLTISKDTSKKQVYLRIANVDTVDTATYYCTRANWDRWYFDVWGTGTTVTVSS VL: QLVLTQSSSASFSLGASAKLTCTLSRQHSAYTIEWYQQQPLKPPKYVMEVKKDGSHSTGDGIPDRFSGSSSGADRYLSISNIQPEDEAIYICGVGDTIKEHFVFGGGTKVTVLG : 0.14
